Experiment: M. tuberculosis growth inhibition, dose response, H37Rv, 7H9 media, purified and synthesized compounds, set 6 (AID 504897)
Details: Mycobacterium tuberculosis H37Rv growth inhibition, 7H9 medium; at 100 µM (top of the series)
Can you tell me inhibition for the items I'm about to list?
# unit: % | format: bare number

GET /values?readout=inhibition&item= Cc1cnc(SCC(=O)NC2CCCCC2)[nH]c1=O
0.5

GET /values?readout=inhibition&item= CCC(Sc1nc2c(c(=O)[nH]1)CCC2)C(=O)Nc1cccc(OC)c1 (stereo unspecified)
1.68

GET /values?readout=inhibition&item= Nc1cc(=O)[nH]c(SCC(=O)NC2CCCCC2)n1
-4.53

GET /values?readout=inhibition&item= Cc1nc(SCc2ccccc2Cl)[nH]c(=O)c1C
-10.5

GET /values?readout=inhibition&item= COc1cccc(NC(=O)CSc2nc3c(c(=O)[nH]2)CCC3)c1
-0.07

GET /values?readout=inhibition&item= CN(C(=O)CSc1nc2ccccc2c(=O)[nH]1)C1CCCCC1
-1.28
